The measurements presented in this section are drawn from ChEMBL document CHEMBL1158485.

procedure-text: Stability in presence of equine kidney gamma-glutamyltranspeptidase at pH 8.4 by TLC
Assay type: ADME

[
  {
    "smiles-record": "N[C@@H](CCC(=O)N[C@H](CCC(=O)N(O)c1ccc(Br)cc1)C(=O)NCC(=O)O)C(=O)O.O=C(O)C(F)(F)F",
    "Stability": "Stable"
  },
  {
    "smiles-record": "N[C@@H](CNC(=O)N[C@@H](CCC(=O)N(O)c1ccc(Br)cc1)C(=O)NCC(=O)O)C(=O)O",
    "Stability": "Stable"
  },
  {
    "smiles-record": "N[C@@H](CCC(=O)N[C@@H](CCN(O)C(=O)c1ccc(Br)cc1)C(=O)NCC(=O)O)C(=O)O.O=C(O)C(F)(F)F",
    "Stability": "Stable"
  }
]

----------
tested-on: UniProt:P50107
Sequence (P50107 whole entry): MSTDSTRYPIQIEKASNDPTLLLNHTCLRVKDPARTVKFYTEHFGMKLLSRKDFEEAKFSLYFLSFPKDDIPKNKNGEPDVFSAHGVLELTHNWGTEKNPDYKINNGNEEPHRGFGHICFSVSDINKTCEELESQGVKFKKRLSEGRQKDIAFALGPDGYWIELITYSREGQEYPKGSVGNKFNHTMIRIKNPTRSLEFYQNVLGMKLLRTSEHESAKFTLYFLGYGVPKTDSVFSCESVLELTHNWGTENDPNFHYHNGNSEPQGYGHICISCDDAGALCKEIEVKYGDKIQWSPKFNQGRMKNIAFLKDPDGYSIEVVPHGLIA
metric-name: Ki (µM)

A: N[C@@H](CCC(=O)N[C@@H](CCC(=O)N(O)c1ccc(Br)cc1)C(=O)NCC(=O)O)C(=O)O.O=C(O)C(F)(F)F
B: N[C@@H](CCC(=O)N[C@@H](CCN(O)C(=O)c1ccc(Br)cc1)C(=O)NCC(=O)O)C(=O)O.O=C(O)C(F)(F)F
// compare measured Ki between A and B ; output the lower one Answer with the label corresponding to your selection. A
